System: T1, Cynomolgus CD73 on MK-1 cells (cynomolgus, UniProt A0A2K5V5U7 27-549)
T1 construct: whole, on cells; also called MK-1 (cyno)
T1 sequence: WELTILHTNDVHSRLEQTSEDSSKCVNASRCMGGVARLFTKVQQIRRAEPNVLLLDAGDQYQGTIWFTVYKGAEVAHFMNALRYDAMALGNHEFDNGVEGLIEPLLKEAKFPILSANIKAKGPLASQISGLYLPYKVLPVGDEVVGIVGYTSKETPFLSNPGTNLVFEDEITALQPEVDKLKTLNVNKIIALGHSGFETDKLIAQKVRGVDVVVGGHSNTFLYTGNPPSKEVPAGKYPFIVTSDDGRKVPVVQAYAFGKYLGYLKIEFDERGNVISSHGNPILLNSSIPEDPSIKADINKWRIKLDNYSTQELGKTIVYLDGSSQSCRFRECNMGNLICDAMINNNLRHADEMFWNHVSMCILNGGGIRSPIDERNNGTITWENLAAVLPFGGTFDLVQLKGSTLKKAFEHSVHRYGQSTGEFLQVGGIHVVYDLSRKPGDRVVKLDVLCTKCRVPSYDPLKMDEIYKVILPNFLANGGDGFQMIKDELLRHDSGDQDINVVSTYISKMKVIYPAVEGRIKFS
Method: flow cytometry on cells
I'd be grateful if you could share measured pKd for these entries.
Convention used: pKd is expressed as -log10 of the molar concentration.

# input Can you share its pKd? I mean this binder: CD730002 2C5 (antibody, V domains shown, IgG1-TM format; also called clone 2C5 antibody) VH: EVQLLESGGGLVQPGGSLRLSCAASGFTFSSYAMSWVRQAPGKGLEWVSAISGSGGSTYYADSVKRRFTISRDNSKNTLYLQMNSLRAEDTAVYYCARDKGYYWYMDVWGQGTMVTVSS VL: QSVLTQPPSVSVSPGQTASITCSGDKVGDKYASWYQQKPGQSPVLVIYEDTKRLSGIPERFSGSNSGNTATLTISGTQAMDEADYYCQAWDTSFWVFGGGTKLTVL
# output 10.20

# input Please look up its pKd: G10 (IgG1-TM) (antibody, V domains shown, IgG1-TM format; also called clone 10 G10) VH: EVQLLESGGGLVQPGGSLRLSCAASGFTFSSYAYSWVRQAPGKGLEWVSAISGSWGRTYYADSVKGRFTISRDNSKNTLYLQMNSLRAEDTAVYYCARLGYSTIDLWGRGTLVTVSS VL: QSVLTQPPSASGTPGQRVTISCSGSLSNIGRNDVNWYQQLPGTAPKLLIYLNNQRLGGVPDRFSGSKSGTSASLAISGLQSEDEADYYCATWDDSLKGWLFGGGTKLTVL
# output 9.59
